- System: OVCAR-8 ovarian
- ASSAY_INFO: NCI tumour cell line growth inhibition, 48 h
Where a SMILES comes first, the peptide text is derived from it. The star is where a group is joined. Pentanoyl = CCCCC(=O)*; Boc = CC(C)(C)OC(=O)*
Form field: TGI (one value per entry).

{"MOLECULE": "CCCC[N+](CCCC)=c1ccc2nc3c(C)cc(N(CC)CC)cc3sc-2c1", "TGI": "2.16 µM"}
{"MOLECULE": "Cn1c(O)c(C(/C=C/c2ccccc2)=NCCN=C(/C=C/c2ccccc2)c2c(O)n(C)c(=O)n(C)c2=O)c(=O)n(C)c1=O", "TGI": "> 50 µM"}
{"MOLECULE": "Cc1nn(C(=O)c2ccc(Cl)cc2)c2c1C(c1cccc([N+](=O)[O-])c1)SC(N)=N2 (stereo not given)", "TGI": "> 10 µM"}
{"MOLECULE": "Nc1ccc(N=Nc2ccc(-c3ccc(O)cc3)cc2)c2ccc(S(=O)(=O)O)cc12", "TGI": "> 100 µM"}
{"MOLECULE": "Cc1nc2ccccc2c(=O)n1NC(=O)c1ccc([N+](=O)[O-])cc1", "TGI": "> 100 µM"}
{"MOLECULE": "C=CCC(CC=O)(C(=O)OCC)C(=O)OCC", "TGI": "> 100 µM"}
{"MOLECULE": "CC(=O)Nc1sc([N+](=O)[O-])cc1S(=O)(=O)c1ccc(Cl)cc1", "TGI": "> 100 µM"}
{"MOLECULE": "Oc1c(CN2CCCC2)cc(COCc2ccc(Br)cc2)c2cccnc12", "TGI": "1.94 µM"}
{"MOLECULE": "Cc1cccc(C(=O)/C=C/SC(=NC#N)SCc2ccccc2)c1", "TGI": "> 100 µM"}
{"MOLECULE": "CCCCC(=O)Oc1ccc(CC(NC(=O)OC(C)(C)C)C(=O)NC(C)C(=O)NC(Cc2ccccc2)C(=O)NCC(N)=O)cc1 (stereo not given) (Boc-Y(Pentanoyl)AFG-NH2; configuration not given here)", "TGI": "62.5 µM"}
